# Organism: Rattus norvegicus
# method: Open TG-GATES - Regimen: Daily Repeat
# Type: toxicity, organism-based, Sprague-Dawley
# Design: regimen Daily Repeat, gender Male, age 6 weeks
# stated-conditions: in vivo, po, 100 mg/kg, […], tissue Blood, route gavage, dose level Low, time 14 day
experimental-endpoint: Fbg (mg/dL)

>>> quantitative_result("O=C(O)c1ccccc1Nc1ccccc1")
308.8
>>> quantitative_result("CCCCNC(=O)NS(=O)(=O)c1ccc(C)cc1 [TOLBUTAMIDE]")
284.2
>>> quantitative_result("CC(=O)[C@@]1(O)CC[C@H]2[C@@H]3C=C(Cl)C4=CC(=O)CC[C@]4(C)[C@H]3CC[C@@]21C")
327.6
>>> quantitative_result("CC(S)C(=O)NCC(=O)O (centres undefined)")
297

* * *

# Species: Rattus norvegicus
# method: Open TG-GATES - Regimen: Daily Repeat
# Assay type: toxicity, organism-based, Sprague-Dawley
# Parameters: regimen Daily Repeat, gender Male, age 6 weeks
# stated-conditions: in vivo, po, 1000 mg/kg, […], tissue Plasma, route gavage, dose level High, time 7 day
experimental-endpoint: BUN (mg/dL)

>>> quantitative_result("CC(=O)[C@@]1(O)CC[C@H]2[C@@H]3C=C(Cl)C4=CC(=O)CC[C@]4(C)[C@H]3CC[C@@]21C")
19.6
>>> quantitative_result("CC(S)C(=O)NCC(=O)O (centres undefined)")
18.4
>>> quantitative_result("O=C(O)c1ccccc1Nc1ccccc1")
20
>>> quantitative_result("CCCCNC(=O)NS(=O)(=O)c1ccc(C)cc1 [TOLBUTAMIDE]")
14.8

* * *

# Species: Rattus norvegicus
# method: Open TG-GATES - Regimen: Daily Repeat
# Type: toxicity, organism-based, Sprague-Dawley
# Parameters: regimen Daily Repeat, gender Male, age 6 weeks
# stated-conditions: in vivo, po, 1000 mg/kg, […], tissue Plasma, route gavage, dose level High, time 14 day
experimental-endpoint: Ca

>>> result("CCCCNC(=O)NS(=O)(=O)c1ccc(C)cc1 [TOLBUTAMIDE]")
"10.9 mg/dL"
>>> result("O=C(O)c1ccccc1Nc1ccccc1")
"11.8 mg/dL"
>>> result("CC(=O)[C@@]1(O)CC[C@H]2[C@@H]3C=C(Cl)C4=CC(=O)CC[C@]4(C)[C@H]3CC[C@@]21C")
"10.7 mg/dL"
>>> result("CC(S)C(=O)NCC(=O)O (centres undefined)")
"10.5 mg/dL"

* * *

# Species on record: Rattus norvegicus
# method: Open TG-GATES - Regimen: Daily Repeat
# Type: toxicity, organism-based, Sprague-Dawley
# Set-up: regimen Daily Repeat, gender Male, age 6 weeks
# stated-conditions: in vivo, po, 300 mg/kg, […], tissue Plasma, route gavage, dose level Middle, time 7 day
Catalogue of K values
experimental-endpoint: K (meq/L)

>>> quantitative_result("CC(S)C(=O)NCC(=O)O (centres undefined)")
4.3
>>> quantitative_result("CC(=O)[C@@]1(O)CC[C@H]2[C@@H]3C=C(Cl)C4=CC(=O)CC[C@]4(C)[C@H]3CC[C@@]21C")
4.6
>>> quantitative_result("O=C(O)c1ccccc1Nc1ccccc1")
4.6
>>> quantitative_result("CCCCNC(=O)NS(=O)(=O)c1ccc(C)cc1 [TOLBUTAMIDE]")
4.1
